System: hTERT-HMEC;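 also: secreted proteins added to cultured cells, EdU pulse at the end, nuclei found by Hoechst imaging, EdU status from nuclear versus surrounding ring intensity ratio, PBS as neutral control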
Assay: percentage of EdU-negative (G0-arrested) nuclei per well, 72 h; higher = more G0 arrest
Details: protein concentration 0.0225 µM; reference: sequence is the full UniProt precursor, the tested protein was the secreted form or ectodomain

{"columns": ["sequence.content", "percentage of EdU-negative (%)"],
 "data": [
  ["MSSFGYRTLTVALFTLICCPGSDEKVFEVHVRPKKLAVEPKGSLEVNCSTTCNQPEVGGLETSLDKILLDEQAQWKHYLVSNISHDTVLQCHFTCSGKQESMNSNVSVYQPPRQVILTLQPTLVAVGKSFTIECRVPTVEPLDSLTLFLFRGNETLHYETFGKAAPAPQEATATFNSTADREDGHRNFSCLAVLDLMSRGGNIFHKHSAPKMLEIYEPVSDSQMVIIVTVVSVLLSLFVTSVLLCFIFGQHLRQQRMGTYGVRAAWRRLPQAFRP", 5.54],
  ["MKALGAVLLALLLFGRPGRGQTQQEEEEEDEDHGPDDYDEEDEDEVEEEETNRLPGGRSRVLLRCYTCKSLPRDERCNLTQNCSHGQTCTTLIAHGNTESGLLTTHSTWCTDSCQPITKTVEGTQVTMTCCQSSLCNVPPWQSSRVQDPTGKGAGGPRGSSETVGAALLLNLLAGLGAMGARRP [Q8IV16]", 4.99],
  ["MALHIHEACILLLVIPGLVTSAAISHEDYPADEGDQISSNDNLIFDDYRGKGCVDDSGFVYKLGERFFPGHSNCPCVCALDGPVCDQPECPKIHPKCTKVEHNGCCPECKEVKNFCEYHGKNYKILEEFKPSPCEWCRCEPSNEVHCVVADCAVPECVNPVYEPEQCCPVCKNGPNCFAGTTIIPAGIEVKVDECNICHCHNGDWWKPAQCSKRECQGKQTV [B2RUY7]", 5.12],
  ["MEIVWEVLFLLQANFIVCISAQQNSPKIHEGWWAYKEVVQGSFVPVPSFWGLVNSAWNLCSVGKRQSPVNIETSHMIFDPFLTPLRINTGGRKVSGTMYNTGRHVSLRLDKEHLVNISGGPMTYSHRLEEIRLHFGSEDSQGSEHLLNGQAFSGEVQLIHYNHELYTNVTEAAKSPNGLVVVSIFIKVSDSSNPFLNRMLNRDTITRITYKNDAYLLQGLNIEELYPETSSFITYDGSMTIPPCYETASWIIMNKPVYITRMQMHSLRLLSQNQPSQIFLSMSDNFRPVQPLNNRCIRTNINFSLQGKDCPNNRAQKLQYRVNEWLLK [Q9NS85]", 5.05],
  ["MNLAISIALLLTVLQVSRGQKVTSLTACLVDQSLRLDCRHENTSSSPIQYEFSLTRETKKHVLFGTVGVPEHTYRSRTNFTSKYNMKVLYLSAFTSKDEGTYTCALHHSGHSPPISSQNVTVLRDKLVKCEGISLLAQNTSWLLLLLLSLSLLQATDFMSL", 4.53],
  ["MRTIAILAAILLVALQAQAESLQERADEATTQKQSGEDNQDLAISFAGNGLSALRTSGSQARATCYCRTGRCATRESLSGVCEISGRLYRLCCR", 4.85],
  ["MKGICSDAILVLATSMWMAFAIDFPLPMASERGQLDKTIVECLKNVNKCWFLSYIKPSEPICGSDQVTYSSDCHLCSKILFEGLNITKLYDGQCENS [P0C7L1]", 5.76],
  ["MNVLLGSVVIFATFVTLCNASCYFIPNEGVPGDSTRKCMDLKGNKHPINSEWQTDNCETCTCYETEISCCTLVSTPVGYDKDNCQRIFKKEDCKYIVVEKKDPKKTCSVSEWII", 5.28],
  ["MLWLFQSLLFVFCFGPGNVVSQSSLTPLMVNGILGESVTLPLEFPAGEKVNFITWLFNETSLAFIVPHETKSPEIHVTNPKQGKRLNFTQSYSLQLSNLKMEDTGSYRAQISTKTSAKLSSYTLRILRQLRNIQVTNHSQLFQNMTCELHLTCSVEDADDNVSFRWEALGNTLSSQPNLTVSWDPRISSEQDYTCIAENAVSNLSFSVSAQKLCEDVKIQYTDTKMILFMVSGICIVFGFIILLLLVLRKRRDSLSLSTQRTQGPAESARNLEYVSVSPTNNTVYASVTHSNRETEIWTPRENDTITIYSTINHSKESKPTFSRATALDNVV [Q96DU3]", 4.5],
  ["MQIITTALVCLLLAGMWPEDVDSKSMQVPFSRCCFSFAEQEIPLRAILCYRNTSSICSNEGLIFKLKRGKEACALDTVGWVQRHRKMLRHCPSKRK", 4.79],
  ["MGLEKPQSKLEGGMHPQLIPSVIAVVFILLLSVCFIASCLVTHHNFSRCKRGTGVHKLEHHAKLKCIKEKSELKSAEGSTWNCCPIDWRAFQSNCYFPLTDNKTWAESERNCSGMGAHLMTISTEAEQNFIIQFLDRRLSYFLGLRDENAKGQWRWVDQTPFNPRRVFWHKNEPDNSQGENCVVLVYNQDKWAWNDVPCNFEASRICKIPGTTLN [Q8WXI8]", 6.12],
  ["MVTLRKRTLKVLTFLVLFIFLTSFFLNYSHTMVATTWFPKQMVLELSENLKRLIKHRPCTCTHCIGQRKLSAWFDERFNQTMQPLLTAQNALLEDDTYRWWLRLQREKKPNNLNDTIKELFRVVPGNVDPMLEKRSVGCRRCAVVGNSGNLRESSYGPEIDSHDFVLRMNKAPTAGFEADVGTKTTHHLVYPESFRELGDNVSMILVPFKTIDLEWVVSAITTGTISHTYIPVPAKIRVKQDKILIYHPAFIKYVFDNWLQGHGRYPSTGILSVIFSMHVCDEVDLYGFGADSKGNWHHYWENNPSAGAFRKTGVHDADFESNVTATLASINKIRIFKGR", 5.6],
  ["MTLFPVLLFLVAGLLPSFPANEDKDPAFTALLTTQTQVQREIVNKHNELRRAVSPPARNMLKMEWNKEAAANAQKWANQCNYRHSNPKDRMTSLKCGENLYMSSASSSWSQAIQSWFDEYNDFDFGVGPKTPNAVVGHYTQVVWYSSYLVGCGNAYCPNQKVLKYYYVCQYCPAGNWANRLYVPYEQGAPCASCPDNCDDGLCTNGCKYEDLYSNCKSLKLTLTCKHQLVRDSCKASCNCSNSIY", 4.68]
]}
